Origin of the recorded values: ChEMBL document CHEMBL3822420

This listing pairs compounds with measured AUC(0-inf).
- Measurement Description: AUC (0 to infinity) in Sprague-Dawley rat at 10 mg/kg, po
- Format: ADME, organism-based
- Parameters: dose 10 mg/kg, time infinity, route oral
- Protocol Conditions: Sprague-Dawley, in vivo
Please reply with the bare figure in ng·h/mL and do not write the unit itself.

Example cases with answers are listed next.
Task: Quick one: AUC(0-inf) of `CCCC[C@H](CN(O)C=O)C(=O)N1CC2(CC2)C[C@H]1c1nc2ccccc2[nH]1` ?
Output: 2380

Task: # AUC(0-inf) lookup, item `CCCC[C@H](CN(O)C=O)C(=O)N1CC2(CC2)C[C@H]1C(=O)Nc1ncc(C)s1`
Output: 2130

Task: # lookup: AUC(0-inf) of `CCCC[C@H](CN(O)C=O)C(=O)N1CC2(CC2)C[C@H]1C(=O)Nc1cc(C(C)(C)C)on1`
Output: 1980

Task: # get_value(readout='AUC(0-inf)', item= `CCCC[C@H](CN(O)C=O)C(=O)N1CC2(CC2)C[C@H]1C(=O)Nc1ccc(F)c[n+]1[O-]` )
Output: 1990

Next up:
Task: I am curious: what AUC(0-inf) value has been reported for `CCCC[C@H](CN(O)C=O)C(=O)N1CC2(CC2)C[C@H]1c1nc(-c2cccnc2)no1` ?
Output: 1300

----------
- System: Enterococcus faecalis
- Measurement Description: Antibacterial activity against Enterococcus faecalis 14-5
- Format: functional
Label criterion met when MIC < 4 µg/mL; otherwise criterion not met.

Task: is_below(MIC, 4 µg/mL) for `C[C@H]1COc2c(N3CCN(C)CC3)c(F)cc3c(=O)c(C(=O)O)cn1c23.C[C@H]1COc2c(N3CCN(C)CC3)c(F)cc3c(=O)c(C(=O)O)cn1c23.O` ?
Output: criterion met

Task: Take the molecule `CCCC[C@H](CN(O)C=O)C(=O)N1CC2(CC2)C[C@H]1C(=O)Nc1ccc(C)c(Nc2nccc(-c3cccnc3)n2)c1` and say whether its MIC is less than 4 µg/mL.
Output: criterion not met

Task: Item `CCCC[C@H](CN(O)C=O)C(=O)N1CC2(CC2)C[C@H]1C(=O)Nc1nccc(-c2cccnc2)n1` : MIC beneath 4 µg/mL, strictly?
Output: criterion met

Task: For CO/N=C(\C(=O)N[C@@H]1C(=O)N2C(C(=O)[O-])=CCS[C@H]12)c1csc(N)n1.[Na+] [CEFTIZOXIME SODIUM] , is the recorded MIC below the cut-off of 4 µg/mL?
Output: criterion not met

Task: For this molecule, is MIC lower than 4 µg/mL? `CCCC[C@H](CN(O)C=O)C(=O)N1CCC[C@H]1C(=O)Nc1ccc(F)c[n+]1[O-]`
Output: criterion not met

Others:
Task: Lab log: compare recorded MIC with 4 µg/mL; is it strictly lower for `CCCC[C@H](CN(O)C=O)C(=O)N1CC2(CC2)C[C@H]1C(=O)Nc1ccc(F)c[n+]1[O-]` ?
Output: criterion not met

Task: State whether 4 µg/mL exceeds MIC recorded for `CCCC[C@H](CN(O)C=O)C(=O)N1CC2(CC2)C[C@H]1c1nnc(-c2ccccn2)o1` .
Output: criterion not met

Task: Confirm or reject: MIC of `CCCC[C@H](CN(O)C=O)C(=O)N1CC2(CC2)C[C@H]1c1nc2ccccc2[nH]1` lies strictly below 4 µg/mL
Output: criterion not met

Task: Is it true that MIC reported for `CCCC[C@H](CN(O)C=O)C(=O)N1CC2(CC2)C[C@H]1c1nnc2ccccn12` is less than 4 µg/mL?
Output: criterion not met

Task: Report whether reported MIC is lower than 4 µg/mL (strictly) for `CCCC[C@H](CN(O)C=O)C(=O)N1CC2(CC2)C[C@H]1C(=O)Nc1cccc(Nc2ncccn2)c1`
Output: criterion met

Task: MIC strictly < 4 µg/mL for this molecule? `CCCC[C@H](CN(O)C=O)C(=O)N1CC2(CC2)C[C@H]1C(=O)Nc1ncc(C)s1`
Output: criterion met

Task: Decide: MIC of `CCCC[C@H](CN(O)C=O)C(=O)N1CC2(CC2)C[C@H]1C(=O)Nc1ncccc1F` strictly below 4 µg/mL?
Output: criterion met

Task: # strict comparison: is reported MIC < 4 µg/mL? input = `CCCC[C@H](CN(O)C=O)C(=O)N1CC2(CC2)C[C@H]1C(=O)Nc1cc(C(C)(C)C)on1`
Output: criterion not met

Task: Please state whether MIC is below 4 µg/mL for `Cc1nc(NNC(=O)[C@H](CC2CCCC2)CN(O)C=O)c(F)c(N2CCN3CCOC[C@@H]3C2)n1`
Output: criterion not met

Task: Strictly below 4 µg/mL: is that where MIC of `CCCC[C@H](CN(O)C=O)C(=O)N1CC2(CC2)C[C@H]1c1nc(-c2cccnc2)no1` sits?
Output: criterion met

Task: Lab note: confirm whether the reported MIC for this molecule is below 4 µg/mL, equality not counting. molecule: `CCCC[C@H](CN(O)C=O)C(=O)N1CC2(CC2)C[C@H]1C(=O)Nc1cc[nH]n1`
Output: criterion not met

----------
Recorded measurements of bioavailability, one per entry
- Measurement Description: Oral bioavailability in Sprague-Dawley rat at 10 mg/kg
- Format: ADME, organism-based
- Protocol Conditions: in vivo
Reply with just the number (in %).

Worked examples follow.
Task: For `CCCC[C@H](CN(O)C=O)C(=O)N1CC2(CC2)C[C@H]1C(=O)Nc1ncc(C)s1` , what is its reported bioavailability?
Output: 30

Task: Which bioavailability value is on record for `CCCC[C@H](CN(O)C=O)C(=O)N1CC2(CC2)C[C@H]1C(=O)Nc1cc(C(C)(C)C)on1` ?
Output: 35

Task: Reported bioavailability for `CCCC[C@H](CN(O)C=O)C(=O)N1CC2(CC2)C[C@H]1C(=O)Nc1ccc(C)c(Nc2nccc(-c3cccnc3)n2)c1` : what is it?
Output: 3

Task: Recorded bioavailability of `CCCC[C@H](CN(O)C=O)C(=O)N1CC2(CC2)C[C@H]1C(=O)Nc1ccc(F)c[n+]1[O-]` , please.
Output: 31

Task: What value of bioavailability has been recorded for this entry: `CCCC[C@H](CN(O)C=O)C(=O)N1CC2(CC2)C[C@H]1c1nc2ccccc2[nH]1`
Output: 37

Okay, now this compound:
Task: Given the entry `CCCC[C@H](CN(O)C=O)C(=O)N1CC2(CC2)C[C@H]1c1nc(-c2cccnc2)no1` , report its measured bioavailability.
Output: 40

----------
- Measurement Description: MRT (0 to t) in Sprague-Dawley rat at 2 mg/kg, iv
- Assay type: ADME, organism-based
- Protocol Conditions: in vivo
Experimental Endpoint: MRT last (h)
Kindly answer with a numeric value in h, unit omitted.

# annotated cases, reported MRT last shown
Task: Please give the measured MRT last for this compound: `CCCC[C@H](CN(O)C=O)C(=O)N1CC2(CC2)C[C@H]1C(=O)Nc1ncc(C)s1`
Output: 1.74

Task: Give the measured MRT last of `CCCC[C@H](CN(O)C=O)C(=O)N1CC2(CC2)C[C@H]1C(=O)Nc1ccc(C)c(Nc2nccc(-c3cccnc3)n2)c1` .
Output: 1.15

Task: Requested field: MRT last. Item: `CCCC[C@H](CN(O)C=O)C(=O)N1CC2(CC2)C[C@H]1C(=O)Nc1cc(C(C)(C)C)on1`
Output: 1.5

Task: Using the record for `CCCC[C@H](CN(O)C=O)C(=O)N1CC2(CC2)C[C@H]1c1nc(-c2cccnc2)no1` , report its MRT last.
Output: 0.61

Task: Given `CCCC[C@H](CN(O)C=O)C(=O)N1CC2(CC2)C[C@H]1c1nc2ccccc2[nH]1` , state its recorded MRT last.
Output: 1.91

As a next step, examine the compound that follows.
Task: Would you mind telling me what MRT last value was observed for `CCCC[C@H](CN(O)C=O)C(=O)N1CC2(CC2)C[C@H]1C(=O)Nc1ccc(F)c[n+]1[O-]` ?
Output: 1.65

----------
# maps each entry to its Cmax
- Measurement Description: Cmax in Sprague-Dawley rat at 10 mg/kg, po
- Format: ADME, organism-based
- Design: dose 10 mg/kg, route oral
- Protocol Conditions: in vivo
Response body: numeric value in ng/mL, unit text excluded.

Example entries begin here.
Task: Would you mind telling me what Cmax value was observed for `CCCC[C@H](CN(O)C=O)C(=O)N1CC2(CC2)C[C@H]1C(=O)Nc1ncc(C)s1` ?
Output: 630

Task: So what's the measured Cmax for this one? `CCCC[C@H](CN(O)C=O)C(=O)N1CC2(CC2)C[C@H]1C(=O)Nc1cc(C(C)(C)C)on1`
Output: 860

Task: # input compound: `CCCC[C@H](CN(O)C=O)C(=O)N1CC2(CC2)C[C@H]1C(=O)Nc1ccc(F)c[n+]1[O-]` ; wanted: its Cmax
Output: 1850

More entries:
Task: Would you kindly share the measured Cmax for `CCCC[C@H](CN(O)C=O)C(=O)N1CC2(CC2)C[C@H]1c1nc2ccccc2[nH]1` ?
Output: 1680

Task: Recorded Cmax for `CCCC[C@H](CN(O)C=O)C(=O)N1CC2(CC2)C[C@H]1C(=O)Nc1ccc(C)c(Nc2nccc(-c3cccnc3)n2)c1` , please?
Output: 100

Task: # lookup: Cmax of `CCCC[C@H](CN(O)C=O)C(=O)N1CC2(CC2)C[C@H]1c1nc(-c2cccnc2)no1`
Output: 893
